assay: gradient 5% acetonitrile 3 min, to 50% in 2 min, to 85% in 15 min, held 3 min, 100 µL/min; settings: column: Zorbax Extend-C18 2.1 x 50 mm; eluents: water / acetonitrile, 0.1% formic acid
observable: RP-LC retention time (s)

Check out these entries, answers already filled in.
// field: RP-LC retention time; key: COC1CCC12CCN(C(=O)Nc1ccccc1)CC2 (stereo not given) ; value = 782

RP-LC retention time measured on CN(CCNC(=O)c1ccc2c(c1)NC(=O)C1CCCCN21)Cc1ccccc1 (stereo not given) = 630

Entry under test: CC(=O)N1CCc2cc(N3CC(C(=O)NCc4ccc5c(c4)OCO5)CC3=O)ccc21 (stereo not given) . Its RP-LC retention time was 659

[I] O=C(C1CCCN(c2cnc3nccnc3c2)C1)N1CCN(c2ccccn2)CC1 (stereo not given)
[II] COc1nc2ccccc2nc1N1CCCC(C(=O)N2CCN(c3ccccc3F)CC2)C1 (stereo not given)
Which is greater in RP-LC retention time, the first item I or the second item II ? Returns: label corresponding to the selected item.
II

---

experiment: gradient 5% acetonitrile 3 min, to 50% in 2 min, to 85% in 15 min, held 3 min, 100 µL/min; details: column: Zorbax Extend-C18 2.1 x 50 mm; eluents: water / acetonitrile, 0.1% formic acid
observable: RP-LC retention time (s)

[I] CCc1cccc(N2C(=O)CN(S(=O)(=O)CC)CC2(C)C(=O)NCc2ccc(F)cc2)c1 (centres undefined)
[II] CCn1ccc(C(=O)N2CCC(c3nc(-c4ccncc4)no3)C2)n1 (centres undefined)
Return label of the item with the larger RP-LC retention time. Candidates: I , II . Give the label of your selection.
I

[I] CCCOc1nc2ccccc2nc1N1CCCC(C(=O)Nc2ccccc2)C1 (centres undefined)
[II] COCCn1cc(CCNC(=O)Nc2c(F)cccc2F)c2cccnc21
Please tell me which of the two, I or II , has the higher reported RP-LC retention time value. The response must carry the label of the picked entry.
I

[a] O=C(Cn1c(=O)c2cccn2c2ccc(F)cc21)NCCCN1CCOCC1
[b] COCCCn1c(=O)c2ccccc2n(Cc2nc(-c3ccc(C)c(C)c3)no2)c1=O
Between a and b , whose recorded RP-LC retention time is greater? To answer, give the label that identifies your chosen option.
b

---

experiment: gradient 5% acetonitrile 3 min, to 50% in 2 min, to 85% in 15 min, held 3 min, 100 µL/min; settings: column: Zorbax Extend-C18 2.1 x 50 mm; eluents: water / acetonitrile, 0.1% formic acid
observable: RP-LC retention time (s)

Some compounds with recorded RP-LC retention time:
The reported RP-LC retention time of the compound CN1CCCn2nc(C3CCN(C(=O)CC(C)(C)C)CC3)cc2C1=O was 654

get_value(item= Cc1ccc(CC(=O)NC(CC(C)C)C(=O)Nc2nc3ccccc3[nH]2)cc1 (stereo not given) , readout=RP-LC retention time) returns 786

The reported value for C[C@H]1CN(C(=O)c2ccc(F)cc2)C[C@@H]1c1nc(-c2ccccc2)no1 in terms of RP-LC retention time is 996

[P] O=C(Nc1ccnn1Cc1ccccc1)c1cc(=O)c2cc(Cl)ccc2o1
[Q] O=C(C1CCN(c2nc3cccnc3s2)CC1)N1CCN(c2ccccn2)CC1
Looking at recorded values for RP-LC retention time, does P or Q come in lower? Reply with the label of the item you choose.
Q

---

experiment: gradient 5% acetonitrile 3 min, to 50% in 2 min, to 85% in 15 min, held 3 min, 100 µL/min; details: column: Zorbax Extend-C18 2.1 x 50 mm; eluents: water / acetonitrile, 0.1% formic acid
observable: RP-LC retention time (s)

Consider the worked cases shown below.
Reported RP-LC retention time for COCCc1nnc(NC(=O)c2cn(C)nc2OC)o1 was 558

For reference, reported RP-LC retention time for Cc1nnc2c(=O)n(CC(=O)NCc3cccc(C(F)(F)F)c3)c3cccnc3n12 stands at 738

GET /value?item= Cc1ccn2c(NC(=O)c3ccc(Cl)c([N+](=O)[O-])c3)c(-c3ccccc3)nc2c1 &field=RP-LC retention time returns 700

For this compound ( Cc1ccc(C(=O)N2CCc3cc(CNC(=O)c4ccnn4C)ccc32)cc1 ), measured RP-LC retention time is 821

For this compound ( COc1ccc(NC(=O)C2CCc3nc(N4CCCC4)ncc3C2)c(C)c1 (stereo not given) ), measured RP-LC retention time is 698

Field RP-LC retention time (entry Cc1ccc(Cn2cc(-c3noc(C4CCCC4)n3)nn2)cc1 ) reads 1070

GET /value?item= COc1cccc(Cn2nnc(C(=O)O)c2C(C)C)c1 &field=RP-LC retention time returns 694

RP-LC retention time in this record for O=C(NCC1CCCO1)c1cccn1Cc1noc(-c2ccccc2)n1 (stereo not given) : 855

[A] CCc1nnc(-c2cc(NC(=O)c3ccnn3C)c(C)s2)o1
[B] CCOc1ccc(C2Cn3nnc(-c4nc(-c5ccc(F)c(F)c5)no4)c3CO2)cc1 (stereo not given)
Compare the recorded RP-LC retention time of A and B ; state which is larger. Please reply using the label of the selected record.
B
(B: 1250 s, A: 774 s)

---

assay: gradient 5% acetonitrile 3 min, to 50% in 2 min, to 85% in 15 min, held 3 min, 100 µL/min; settings: column: Zorbax Extend-C18 2.1 x 50 mm; eluents: water / acetonitrile, 0.1% formic acid
observable: RP-LC retention time (s)

Below are worked cases with known answers.
Note to self: RP-LC retention time recorded for COCCNC(=O)N1CCC(OC2CCN(Cc3ccccc3)CC2)CC1 was 571

get_value(item= Cc1cccc(NC(=O)c2cc(C)n3nccc3n2)c1 , readout=RP-LC retention time) returns 955

Value of measured RP-LC retention time for the entry COCCN1C(=O)Cc2ccccc2C1C(=O)N1CCN(c2ccccc2Cl)CC1 (centres undefined) : 904

The reported RP-LC retention time of the compound CCc1cccc(N2C(=O)CN(S(C)(=O)=O)CC2(C)C(=O)NCc2ccc(F)cc2)c1 (centres undefined) was 847

[I] Cc1ncn(CC(=O)Nc2ccc(F)cc2)c(=O)c1C
[II] O=c1c2oc3ccccc3c2ncn1Cc1nc(-c2cccc(C(F)(F)F)c2)no1
# min-compare on RP-LC retention time between I and II Your answer should be the label attached to the chosen record.
I
(I: 638 s, II: 1040 s)

[I] C(=N/NC1=NCCN1)/c1c2ccccc2c(/C=N\NC2=NCCN2)c2ccccc12
[II] CC1=C(c2cccc(Cl)c2)S(=O)(=O)N=C1N1CCCN(C(=O)CC(C)C)CC1
Please indicate which entry, I or II , has the lower recorded RP-LC retention time value. Write down the label attached to your selection.
I

[a] CC(=O)N1CCc2cc(N3CC(C(=O)NCc4ccccc4F)CC3=O)ccc21 (centres undefined)
[b] O=C(Nc1ccc(Cl)c(Cl)c1)Nc1nc(-c2ccccc2)cs1
Kindly identify the item with the lower RP-LC retention time figure among these two: a and b Let me know the label of the one you choose.
a

[1] C[C@@H]1CN(C(=O)Cc2cccnc2)C[C@H]1c1nc(-c2ccncc2)no1
[2] Cc1ccc(S(=O)(=O)N2CCC(CCNC(=O)NC(C)(C)C)CC2)cc1
Which has the higher RP-LC retention time, 1 or 2 ? Respond using the label that marks the chosen record.
2
(2: 885 s, 1: 568 s)

[1] COc1ccc(Cl)cc1NC(=O)Nc1ccc2c(c1)C(=O)NCC2
[2] O=C(NCc1ccccc1)Nc1ccc(-c2nc(-c3ccccc3)co2)cc1
For the pair 1 and 2 , which member has the lower RP-LC retention time number? // respond with label for picked entry
1
(1: 748 s, 2: 1070 s)

[1] CCN1C(=O)c2cccnc2Sc2cc(NC(=O)c3ccc4c(c3)OCO4)ccc21
[2] CCCCN1CCN(C(=O)c2cc(NC(=O)C3CCC3)cc3nc(C)ccc23)CC1
Select the item with the higher value of RP-LC retention time from the options 1 and 2 listed. Field: selected label. Fill in the label of the entry you choose.
1
(1: 802 s, 2: 551 s)

---

assay: gradient 5% acetonitrile 3 min, to 50% in 2 min, to 85% in 15 min, held 3 min, 100 µL/min; conditions: column: Zorbax Extend-C18 2.1 x 50 mm; eluents: water / acetonitrile, 0.1% formic acid
observable: RP-LC retention time (s)

Answered examples (3):
# compound Cc1c(Cl)cccc1NC(=O)Cn1nc(N(C)C)c2ccccc2c1=O ; its RP-LC retention time = 906

Record summary for Cc1cc(Cl)ccc1NC(=O)C1CCCN(c2ncnc3c2nc2n3CCCCC2)C1 (stereo unspecified) : reported RP-LC retention time = 879

Looking up CN(C)CCCNC(=O)c1cn(C)nc1S(=O)(=O)N1CCN(c2ccc(Cl)cc2)CC1 , I see its RP-LC retention time listed as 684

[1] Cc1ccc(C)c(S(=O)(=O)Nc2ccc(C(=O)Nc3ccccc3F)cc2)c1
[2] CCc1nc2cc(N3CCCC(C(=O)NCCN(C)C)C3)cnc2nc1CC (stereo unspecified)
[3] O=C1/C(=C/c2ccsc2)CC/C1=C\c1cccs1
Order each entry by recorded RP-LC retention time, climbing from the minimum. Ranked list of labels, please, in the requested order.
2, 1, 3
(2: 604 s, 1: 863 s, 3: 1280 s)

[P] Cc1cc(C)c(S(=O)(=O)N2CC(=O)N(CC3CC3)C3(CCOCC3)C2)c(C)c1
[Q] Cc1cc(S(=O)(=O)N2CC(c3nc(-c4ccccc4)nn3C)C2)ccc1F
I'm curious whether P or Q has the smaller RP-LC retention time number. Which is it? Write the label of whichever entry you select.
Q

[a] Cc1ccc(CS(=O)(=O)N2CCC(C3CCNC3)CC2)cc1 (stereo unspecified)
[b] Cc1noc2nc(C)n(CC(=O)NC(C)CCc3ccccc3)c(=O)c12 (stereo unspecified)
[c] CCCCC(=O)N(CC)c1nc(-c2ccccc2)cs1
Please produce an ascending ranking of these compounds based on RP-LC retention time. The response must list the labels following the requested ordering.
a, b, c

Origin of the recorded values: the METLIN SMRT retention time set (Domingo-Almenara et al. 2019)
